Property: ActRIIa binding (relative to wild type = 1.0); scope: individual binders
measurement target: T1, ActRIIa receptor-Fc fusion (UniProt P27037 20-134, limits assumed)
T1 construct: BMP receptor-Fc fusion used at 5 ug/mL
T1 sequence (P27037 20-134 limits assumed): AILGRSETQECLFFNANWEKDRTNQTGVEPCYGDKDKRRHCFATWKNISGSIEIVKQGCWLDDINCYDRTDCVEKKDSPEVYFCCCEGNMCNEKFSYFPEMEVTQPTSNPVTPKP
protocol text: ELISA-like plate assay, captured BMP-7 from conditioned media, receptor-Fc detection

Example binders with recorded ActRIIa binding (relative to wild type = 1.0):
| binder | assay value |
| --- | --- |
| BMP-7 variant L21N (ligand, In conditioned media; numbering on mature BMP-7) STGGKQRSQNRSKTPKNQEANRMASVAENSSSDQRQACKKHELYVSFRDLGWQDWIIAPEGYAAYYCEGECAFPLNSYMNATNHAIVQTLVHFINPETVPKPCCAPTQLNAISVLYFDDSSNVILKKYRNMVVRACGCH | 1.03 relative to wild type |
| BMP-7 variant F73K (ligand, In conditioned media; numbering on mature BMP-7) STGGKQRSQNRSKTPKNQEALRMASVAENSSSDQRQACKKHELYVSFRDLGWQDWIIAPEGYAAYYCEGECAKPLNSYMNATNHAIVQTLVHFINPETVPKPCCAPTQLNAISVLYFDDSSNVILKKYRNMVVRACGCH | 0.61 relative to wild type |
| BMP-7 variant F93E (ligand, In conditioned media; numbering on mature BMP-7) STGGKQRSQNRSKTPKNQEALRMASVAENSSSDQRQACKKHELYVSFRDLGWQDWIIAPEGYAAYYCEGECAFPLNSYMNATNHAIVQTLVHEINPETVPKPCCAPTQLNAISVLYFDDSSNVILKKYRNMVVRACGCH | 0.79 relative to wild type |

Please find the next binder below.
Quick check: ActRIIa binding (relative to wild type = 1.0) of BMP-7 variant L90R (ligand, In conditioned media; numbering on mature BMP-7) STGGKQRSQNRSKTPKNQEALRMASVAENSSSDQRQACKKHELYVSFRDLGWQDWIIAPEGYAAYYCEGECAFPLNSYMNATNHAIVQTRVHFINPETVPKPCCAPTQLNAISVLYFDDSSNVILKKYRNMVVRACGCH ? 0.47 relative to wild type
